Test Target: T1, HLA-A1 (A*0101) (human)
T1 construct: MHC class I molecule on mild-acid-stripped EBV-transformed B cells (CAA)
Test Details: cellular competition binding assay on acid-stripped B-LCL CAA, flow cytometry; competitor Fl-labeled reference peptide YLEPAC(Fl)AKY
Property Measured: IC50 (nM)
Express it in nM; write the number only.

Quick check: IC50 of GTLHLERLAY [PRAME 453-462 GTLHLERLAY] ? 2000
